Hello, the source for this data is ChEMBL document CHEMBL1955797, in case you need it.

experimental.details: Volume of distribution at steady state in rat at 10 mg/kg
Assay type: ADME, organism-based
Parameters: dose 10 mg/kg
measurement.parameters: in vivo, read-out: Vdss
outcome.measure: Vd (L/kg)
Please state the figure in L/kg; there is no need to write the unit.

Problem: # input compound: FC(F)(F)c1ccccc1-c1ccc2[nH]c(/C=C/C3CCCCC3)nc2c1 ; wanted: its Vd
Result: 9.5

====

experimental.details: Metabolic stability in rat liver microsomes assessed as compound remaining after 10 mins
Assay type: ADME, Microsome
measurement.parameters: read-out: Stability
Field: class. Source value: remaining at 10 min. Ranges: 0 = under 40%, 1 = from 40% up to 70%, 2 = 70% and over

Problem: Class (by measured remaining at 10 min) for Fc1cccc(C(F)(F)F)c1-c1ccc2[nH]c(/C=C/C3CCCCC3)nc2c1
Result: 1
